Here, each record is paired with measured kon data.
- experimental_target: tetanus neurotoxin (TeNT), authentic tetanus holotoxin (Clostridium tetani, UniProt P04958 2-1315)
- Sequence (P04958 2-457 limits assumed, chain 1 of 2): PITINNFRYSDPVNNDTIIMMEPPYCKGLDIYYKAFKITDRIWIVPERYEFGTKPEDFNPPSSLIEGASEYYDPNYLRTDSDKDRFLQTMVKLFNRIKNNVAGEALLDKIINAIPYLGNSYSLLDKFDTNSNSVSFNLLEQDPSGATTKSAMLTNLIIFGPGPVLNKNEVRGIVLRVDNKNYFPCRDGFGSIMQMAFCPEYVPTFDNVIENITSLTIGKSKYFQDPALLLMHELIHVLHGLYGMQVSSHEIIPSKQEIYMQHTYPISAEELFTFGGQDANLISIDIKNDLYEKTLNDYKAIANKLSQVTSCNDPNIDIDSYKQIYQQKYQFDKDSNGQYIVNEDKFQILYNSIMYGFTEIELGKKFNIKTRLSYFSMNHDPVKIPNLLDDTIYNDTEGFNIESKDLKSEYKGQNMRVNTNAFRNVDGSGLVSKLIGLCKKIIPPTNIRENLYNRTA
- Sequence (P04958 458-1315 limits assumed, chain 2 of 2): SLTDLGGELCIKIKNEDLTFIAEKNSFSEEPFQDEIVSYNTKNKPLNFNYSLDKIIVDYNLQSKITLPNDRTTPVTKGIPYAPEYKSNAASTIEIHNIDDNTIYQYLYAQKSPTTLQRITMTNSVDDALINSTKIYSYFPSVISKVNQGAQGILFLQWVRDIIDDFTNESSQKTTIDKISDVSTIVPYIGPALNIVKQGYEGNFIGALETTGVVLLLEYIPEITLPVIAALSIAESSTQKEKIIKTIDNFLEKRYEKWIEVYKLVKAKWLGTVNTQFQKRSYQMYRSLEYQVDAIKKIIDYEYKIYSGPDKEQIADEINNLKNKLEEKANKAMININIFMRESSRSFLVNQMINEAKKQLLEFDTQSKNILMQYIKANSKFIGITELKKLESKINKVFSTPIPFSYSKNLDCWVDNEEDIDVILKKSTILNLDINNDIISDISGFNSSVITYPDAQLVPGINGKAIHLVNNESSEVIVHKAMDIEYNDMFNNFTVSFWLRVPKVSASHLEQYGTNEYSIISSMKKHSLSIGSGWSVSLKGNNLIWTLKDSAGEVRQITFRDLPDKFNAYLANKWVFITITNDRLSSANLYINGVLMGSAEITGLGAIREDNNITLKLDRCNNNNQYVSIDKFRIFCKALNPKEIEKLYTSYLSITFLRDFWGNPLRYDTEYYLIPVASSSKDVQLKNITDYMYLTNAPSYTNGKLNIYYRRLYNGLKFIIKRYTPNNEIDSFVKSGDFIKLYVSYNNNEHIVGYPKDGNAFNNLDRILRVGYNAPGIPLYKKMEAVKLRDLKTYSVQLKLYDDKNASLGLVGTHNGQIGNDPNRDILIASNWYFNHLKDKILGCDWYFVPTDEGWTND
- assay_details: BLI (Octet Red96): biotinylated TeNT on SA sensor, SDA as analyte
Give your result in M⁻¹ s⁻¹ as a bare value.

>>> obs_value("SVT06-GS2-SVA12M2-H6 (bispecific antibody) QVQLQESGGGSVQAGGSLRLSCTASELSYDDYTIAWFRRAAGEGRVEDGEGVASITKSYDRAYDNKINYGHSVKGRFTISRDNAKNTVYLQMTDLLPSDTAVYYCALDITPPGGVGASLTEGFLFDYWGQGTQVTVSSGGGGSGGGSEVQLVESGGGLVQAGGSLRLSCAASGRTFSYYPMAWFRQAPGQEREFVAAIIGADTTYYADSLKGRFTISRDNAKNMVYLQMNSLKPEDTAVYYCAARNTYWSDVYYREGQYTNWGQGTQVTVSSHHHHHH")
591000

# ---- query binder ----
Returns the measured kon for the input binder. Input: SVT06-GS2-SVG13M4-H6 (bispecific antibody) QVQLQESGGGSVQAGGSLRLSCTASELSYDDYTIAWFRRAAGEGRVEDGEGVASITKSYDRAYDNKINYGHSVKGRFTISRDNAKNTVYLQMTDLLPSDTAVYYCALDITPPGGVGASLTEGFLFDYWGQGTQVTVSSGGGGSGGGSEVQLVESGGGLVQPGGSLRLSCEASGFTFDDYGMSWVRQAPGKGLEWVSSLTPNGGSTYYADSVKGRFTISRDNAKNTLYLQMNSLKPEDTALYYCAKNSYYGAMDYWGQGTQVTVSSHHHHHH
670000
